- METHOD NOTES: Toxicity liver stage against HepG2, at 10uM
- Format: cell-based
- Design: test concentration 10 uM, cell line HepG2-A16-CD81EGFP
- EXPERIMENTAL CONTEXT: human, HepG2-A16-CD81EGFP cells; read-out: INHIBITION

- MOLECULE: "O=C(NCCc1cccs1)[C@]12COC[C@H]1CN(Cc1ccncc1)C2"
  cytotoxicity at 10 µM (%): -114
- MOLECULE: "NS(=O)(=O)c1cc(C(=O)N2CCCC(n3ccnc3)C2)cs1 (configuration not stated)"
  cytotoxicity at 10 µM (%): -11.3
- MOLECULE: "CS(=O)(=O)N[C@@H]1COC[C@@H]2CN(Cc3ccoc3)C[C@@H]21"
  cytotoxicity at 10 µM (%): -4.85
- MOLECULE: "CC(=O)N1CCCC1C(=O)NCCOc1c(C)cccc1C (configuration not stated)"
  cytotoxicity at 10 µM (%): -24.1
- MOLECULE: "Cc1c(S(=O)(=O)N2CCCC2c2nnc(-c3ccsc3)o2)cnn1C (configuration not stated)"
  cytotoxicity at 10 µM (%): 3.04
- MOLECULE: "COCCOCC(=O)NC(C#N)c1cc(Cl)cc(Cl)c1 (configuration not stated)"
  cytotoxicity at 10 µM (%): 8.31
- MOLECULE: "Cc1ccc(Br)cc1NC(=O)NCC(O)CO (configuration not stated)"
  cytotoxicity at 10 µM (%): 12.9
- MOLECULE: "CCNc1cc2c(nn1)CCN(C(=O)c1cc3ccccc3[nH]c1=O)C2"
  cytotoxicity at 10 µM (%): -1.41
- MOLECULE: "Cc1noc(C)c1CN(C)Cn1c(=O)oc2ccccc21"
  cytotoxicity at 10 µM (%): -5.07
- MOLECULE: "Cc1noc(C)c1-c1ccc(C2CCCN2C(=O)c2cnn(C)c2)nc1 (configuration not stated)"
  cytotoxicity at 10 µM (%): -16.7
- MOLECULE: "CC[C@@H]1N(Cc2nccs2)CCC[C@]12CCC(=O)N2CCOC"
  cytotoxicity at 10 µM (%): 2.49
- MOLECULE: "Cc1nnc2n1CCN(CC(=O)N1CCc3ccccc3C1)C2"
  cytotoxicity at 10 µM (%): -9.27

----------
- METHOD NOTES: Toxicity liver stage against HepG2, at 10uM
- Type: cell-based
- Set-up: test concentration 10 uM, cell line HepG2-A16-CD81EGFP
- EXPERIMENTAL CONTEXT: human, HepG2-A16-CD81EGFP cells; read-out: INHIBITION
MEASURED METRIC: cytotoxicity at 10 µM (%)

- COMPOUND: "O=C(c1ccc(-n2ccnc2)nn1)N1CCCC1CCc1ccccc1 (stereo not drawn)"
  MEASURED METRIC: "cytotoxicity at 10 µM"
  UNIT NAME: "%"
  EXPERIMENTAL RESULT: 8.57
- COMPOUND: "COCC1COCCC12CCN(S(=O)(=O)c1ccccc1)CC2 (stereo not drawn)"
  MEASURED METRIC: "cytotoxicity at 10 µM"
  UNIT NAME: "%"
  EXPERIMENTAL RESULT: 0.242
- COMPOUND: "Cc1ccc(C2CSCCN2CC(=O)N2CCOCC2)cc1 (stereo not drawn)"
  MEASURED METRIC: "cytotoxicity at 10 µM"
  UNIT NAME: "%"
  EXPERIMENTAL RESULT: 9.04
- COMPOUND: "CCc1nc(C2CCCN2Cc2nc(Cc3ccccc3)no2)no1 (stereo not drawn)"
  MEASURED METRIC: "cytotoxicity at 10 µM"
  UNIT NAME: "%"
  EXPERIMENTAL RESULT: 3.12
- COMPOUND: "COc1ccc2c(c1)OCC(Cc1ccc(CN)cn1)C2 (stereo not drawn)"
  MEASURED METRIC: "cytotoxicity at 10 µM"
  UNIT NAME: "%"
  EXPERIMENTAL RESULT: -1.84
- COMPOUND: "COCCn1cc2c(n1)C(CNS(C)(=O)=O)OCC2 (stereo not drawn)"
  MEASURED METRIC: "cytotoxicity at 10 µM"
  UNIT NAME: "%"
  EXPERIMENTAL RESULT: 0.763
- COMPOUND: "O=C(CC1=CSC2=NCCCN12)N1CCCCCC1c1ccco1 (stereo not drawn)"
  MEASURED METRIC: "cytotoxicity at 10 µM"
  UNIT NAME: "%"
  EXPERIMENTAL RESULT: 10
- COMPOUND: "CNC(=O)c1sc2ccccc2c1C1CCN(c2cc(C)nc(C)n2)C1 (stereo not drawn)"
  MEASURED METRIC: "cytotoxicity at 10 µM"
  UNIT NAME: "%"
  EXPERIMENTAL RESULT: 10.8
- COMPOUND: "O=C(c1csnn1)N1CCCC(n2cncn2)C1 (stereo not drawn)"
  MEASURED METRIC: "cytotoxicity at 10 µM"
  UNIT NAME: "%"
  EXPERIMENTAL RESULT: 5.81
- COMPOUND: "Cc1cnn(C2CCCN(C(=O)c3ccc(-n4ccnc4)cc3)C2)c1 (stereo not drawn)"
  MEASURED METRIC: "cytotoxicity at 10 µM"
  UNIT NAME: "%"
  EXPERIMENTAL RESULT: -1.14
- COMPOUND: "COCCN(C)c1cnn(C)c(=O)c1Br"
  MEASURED METRIC: "cytotoxicity at 10 µM"
  UNIT NAME: "%"
  EXPERIMENTAL RESULT: 1.09
- COMPOUND: "CC(C)c1noc(CNc2cccc(-c3nnnn3C)c2)n1"
  MEASURED METRIC: "cytotoxicity at 10 µM"
  UNIT NAME: "%"
  EXPERIMENTAL RESULT: -5.47
- COMPOUND: "CN(Cc1cn2c(n1)CN(Cc1ccsc1)CC2)Cc1ccco1"
  MEASURED METRIC: "cytotoxicity at 10 µM"
  UNIT NAME: "%"
  EXPERIMENTAL RESULT: -78.5
